Experiment: self-splicing fitness, log relative to wild type (ln ratio); higher = more splicing; Tetrahymena group I intron in knt gene, E. coli kanamycin selection, DiMSum; sequences stand for … in CUCUCU…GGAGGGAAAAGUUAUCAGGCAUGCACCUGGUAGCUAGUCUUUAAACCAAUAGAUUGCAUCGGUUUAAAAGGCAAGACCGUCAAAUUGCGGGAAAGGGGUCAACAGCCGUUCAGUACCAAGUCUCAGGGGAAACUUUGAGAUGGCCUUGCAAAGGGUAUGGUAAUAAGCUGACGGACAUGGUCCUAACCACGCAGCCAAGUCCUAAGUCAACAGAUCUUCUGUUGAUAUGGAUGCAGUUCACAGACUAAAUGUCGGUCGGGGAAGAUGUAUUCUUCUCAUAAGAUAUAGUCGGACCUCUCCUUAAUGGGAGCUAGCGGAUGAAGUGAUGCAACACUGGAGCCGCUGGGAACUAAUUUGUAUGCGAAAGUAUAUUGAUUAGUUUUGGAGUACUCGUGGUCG;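 further: selection with 25 µg/mL kanamycin versus none on LB agar overnight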
Conditions: 37 °C
Assign class by self-splicing fitness (ln): not lower than -1 means true (1); lower than -1 means false (0).

Request: Threshold query (self-splicing fitness (ln) >= -1) on `GUGAAGCAAUAUUACGUUGC`
Response: false (0)

Request: Could you tell me if the measured self-splicing fitness (ln) of `AGCUAGCAAUAUUACGAGGG` reaches -1 or more?
Response: false (0)

Request: Hi team, for `CGUCAGCAAUAUUACGUAAC` , is the recorded self-splicing fitness (ln) at or above -1?
Response: false (0)

Request: State whether the measured self-splicing fitness (ln) reaches -1, counting equality as reaching it, for `GGUGAGCAAUAUUACGUGCG`
Response: true (1)

Request: Decide: is the reported value of self-splicing fitness (ln) for `GGAUAGCAAUAUUACGUCGG` equal to or greater than -1?
Response: false (0)

Request: Could you please find out whether `CGGGAGCAAUAUUACGAAUA` has self-splicing fitness (ln) that meets -1 or exceeds it?
Response: false (0)

Request: Does the sequence `UGUGAGCAAUAUUACGGCAU` have recorded self-splicing fitness (ln) that is -1 or more?
Response: false (0)

Request: In plain terms: is recorded self-splicing fitness (ln) at least -1 for `CGGAAGCAAUAUUACGUGAA` ?
Response: false (0)

Request: Could you verify whether the entry `GACGAGCAAUAUUACGCCGC` shows self-splicing fitness (ln) of no less than -1?
Response: false (0)

Request: Answer whether self-splicing fitness (ln) of `UUCGAGCAAUAUUACGUAAG` is greater than or equal to -1.
Response: false (0)

Request: Has `GUUCAGCAAUAUUACGCGCU` a recorded self-splicing fitness (ln) greater than or equal to -1?
Response: false (0)

Request: Could you please find out whether `AGGUAGCAAUAUUACGGCAC` has self-splicing fitness (ln) that meets -1 or exceeds it?
Response: true (1)

Request: Record `AGAUAGCAAUAUUACGAGGC` ; criterion: self-splicing fitness (ln) no lower than -1. Met?
Response: true (1)

Request: Does `AGUUAGCAAUAUUACGCCGA` have a reported self-splicing fitness (ln) of at least -1?
Response: false (0)

Request: Confirm if self-splicing fitness (ln) reported for the sequence `CCACAGCAAUAUUACGUUAU` is -1 or above.
Response: false (0)

These measurements were taken from the supplement of paper PMC7877785.
